Test system: IL-21
PROTOCOL_DESCRIPTION: Human TH17 Cytokine Inhibition as measured by ELISA (IL-21)
Format: cell-based
CONDITION_CONTEXT: 72 h; human CD4+ T cells under TH17-polarizing conditions, 3 days, supernatant ELISA
In this section we review reported IC50 values for a set of compounds.

Past entries and their recorded results:
> print(dat)
                                   compound  observed.measurement
1  O=C(CCc1ccccc1)N1CCC(Cn2ccc3cc(-c4cn[nH]c4)ccc32)CC1               < 10 µM
2  CC1(C)CC(Cn2ccc3cc(-c4cn[nH]c4)ccc32)CN1C(=O)Cc1ccccc1 (stereo not shown)               < 10 µM
3  CC(C)C(=O)N1CC(CN2CCc3cc(-c4cn[nH]c4)ccc32)CC1C (stereo not shown)               < 10 µM

Lab note: CC1(C)CC(Cn2ccc3cc(-c4cn[nH]c4)ccc32)CN1C(=O)CC1CCCCC1 (stereo not shown) gave IC50 of < 10 µM

The reported IC50 of the compound O=C(CCc1ccccc1)N1CCC(Cn2ccc3cc(-c4cnn(CCO)c4)ccc32)CC1 was < 10 µM

The recorded IC50 for O=C(CCCc1ccccc1)N1CCC(Cn2ccc3cc(-c4cn[nH]c4)ccc32)CC1 is < 10 µM
